# Tested on: nVLP GII.4
# PROTOCOL: Surface plasmon resonance (SPR) screening of optimized peptides against GII.4
# Type: binding, Norovirus
# RUN PARAMETERS: SPR, unpurified peptides against nVLP GII.4
Binarize Avg Binding (Spot 1/2) at 200; below is y, at or above is n.

# RESIDUES, GROUP LABEL
records = [
    ("LLYNKTFPHGRWSPSYPGSC [nVLP-1WT]", "y"),
    ("AWARSNNSRSKAFNLGWGSC [Mut Peptide-81, optimized peptide]", "y"),
    ("VWARKNNKRKKDFNAGWGSC [Mut Peptide-53, optimized peptide]", "y"),
    ("RWHRVDLRSHTELPRYIGSC [nVLP-6WT]", "y"),
    ("RWHRVKLRSHTELNRYIGSC [Mut Peptide-92, optimized peptide]", "n"),
]
